- Tested on: M. tuberculosis MDR strain 7357/1998
- Assay Comment: microbe, parasite or virus in culture
- Assay type: cell-based
- Conditions Used: Mycobacterium tuberculosis, 336 h, read-out: Minimum inhibiting concentration of substances with general formula I
Measurement Type: MIC (µM)
Write the value in µM as a bare number.

What does the record list as MIC for O=[N+]([O-])c1cc(CSc2nc(-c3ccc(Cl)cc3)no2)cc([N+](=O)[O-])c1 [Compound 4] ?
1

What does the record list as MIC for O=[N+]([O-])c1cc(CSc2nc(-c3ccc(Br)cc3)no2)cc([N+](=O)[O-])c1 [Compound 9] ?
1

Need MIC, item O=[N+]([O-])c1cc(CSc2nc(-c3ccc(F)cc3)no2)cc([N+](=O)[O-])c1 [Compound 8]
0.5

// lookup MIC for COc1ccc(-c2noc(SCc3cc([N+](=O)[O-])cc([N+](=O)[O-])c3)n2)cc1 [Compound 3]
0.5

Fill in the blank: the reported MIC of O=[N+]([O-])c1cc(CSc2nc(-c3cccc(Cl)c3)no2)cc([N+](=O)[O-])c1 [Compound 5] is ____.
1
